Below, each entry is listed alongside its reported PBM binding z-score.
System: PPARg:RXRa IVT, anti-PPARg (NR concentration 270 nM, RXRa partner concentration 90 nM)
Assay: PBM binding z-score (relative to random genomic background probes); higher = stronger binding; sequences stand for … in GC…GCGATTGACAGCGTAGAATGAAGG
// print number alone

CGTCAAAGTTCAACTAACGTAACGTAAAGCACGC    1.8

# input Name the recorded PBM binding z-score for GCGTATAGGTAATACAAGGTGAAAGTCCGATTGT .
# output 1.33

# input Name the recorded PBM binding z-score for TCTCGGAGGACACGAAAGGTCAGAGTTCGACATC .
# output 1.81

# input Name the recorded PBM binding z-score for AGAACGAGGGCAATGAGTTGATACCACGGGTGGC .
# output 2.47

# input Name the recorded PBM binding z-score for CACCCTAGGTCAGGGCCAGTATAGGAGGAACGTT .
# output 1.64

# input Name the recorded PBM binding z-score for GCGACTGGGGCATCAGCAGGTGACCATAACTTAA .
# output 3.33
